Molecular target: T1, human MSLN-R1-his protein (human, UniProt Q13421 296-390)
T1 construct: Region 1 of human mesothelin, made in HEK293E cells, His-tagged; also called human MSLN-R1 protein; hMSLN-R1-his; not shown: His tag
T1 chain: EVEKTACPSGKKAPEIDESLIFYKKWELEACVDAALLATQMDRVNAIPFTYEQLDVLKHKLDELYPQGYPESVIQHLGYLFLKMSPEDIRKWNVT
Assay: ELISA on coated MSLN-R1; antibody 0.1 nM
Each entry below lists one item and its recorded OD450 value.
Numbers only; they are read as OD450.

Before answering, review these 3 worked examples.
S009-F8-31.22 (antibody, human IgG1, kappa, V domains shown) VH: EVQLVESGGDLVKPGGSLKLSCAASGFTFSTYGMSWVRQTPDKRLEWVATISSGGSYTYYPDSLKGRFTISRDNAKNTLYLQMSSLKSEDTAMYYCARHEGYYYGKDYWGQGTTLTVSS VL: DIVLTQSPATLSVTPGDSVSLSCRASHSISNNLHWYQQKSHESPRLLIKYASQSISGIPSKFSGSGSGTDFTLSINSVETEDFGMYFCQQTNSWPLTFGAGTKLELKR ... 1.95
S009-F8-13.8 (antibody, human IgG1, kappa, V domains shown) VH: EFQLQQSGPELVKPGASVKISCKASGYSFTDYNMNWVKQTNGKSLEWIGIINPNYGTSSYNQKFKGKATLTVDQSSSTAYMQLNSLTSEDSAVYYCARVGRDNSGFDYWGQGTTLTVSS VL: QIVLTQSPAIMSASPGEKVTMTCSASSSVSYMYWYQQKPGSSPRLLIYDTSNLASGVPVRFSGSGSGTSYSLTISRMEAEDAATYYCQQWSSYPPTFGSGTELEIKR ... 1.26
S009-F8-8.22 (antibody, human IgG1, kappa, V domains shown) VH: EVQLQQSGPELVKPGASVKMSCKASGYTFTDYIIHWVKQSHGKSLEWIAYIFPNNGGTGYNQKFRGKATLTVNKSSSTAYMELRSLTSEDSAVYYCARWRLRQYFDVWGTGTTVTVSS VL: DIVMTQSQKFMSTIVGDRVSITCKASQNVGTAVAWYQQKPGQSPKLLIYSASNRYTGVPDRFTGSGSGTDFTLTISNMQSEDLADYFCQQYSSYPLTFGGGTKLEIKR ... 1.78

The record that follows has no OD450 shown yet.
In plain terms, S009-F8-27.1 (antibody, human IgG1, kappa, V domains shown) VH: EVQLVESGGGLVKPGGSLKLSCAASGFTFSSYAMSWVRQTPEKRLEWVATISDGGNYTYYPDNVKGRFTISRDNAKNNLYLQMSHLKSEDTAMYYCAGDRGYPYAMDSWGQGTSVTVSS VL: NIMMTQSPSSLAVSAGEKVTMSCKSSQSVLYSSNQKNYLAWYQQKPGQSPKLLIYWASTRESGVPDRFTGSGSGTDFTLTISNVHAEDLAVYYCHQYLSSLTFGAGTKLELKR has a documented OD450 of 0.05
